B1: SNX8 (parent)
chain: RMVPALPPKRMLGADREFIEARRR

Variants of: B1
Experiment: protein stability index of a GFP-peptide fusion (GPS, HEK-293T) (PSI 1-6); higher = more stable;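 also: lentivirally expressed fusions sorted by FACS into six bins by GFP to DsRed ratio, PSI derived from sequencing read proportions per bin multiplied by bin number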
Conditions: c terminus: a fixed tail appended
Please assign a class to every record based on measured protein stability index, with ranges low (below 3), medium (3 to below 4), high (4 or more)

> print(dat)
             query.sequence  assigned.label
1  RMVPALPPKRMLGADREFSEARRR          medium
2  RMVIALPPKRMLGADREFIEARRR             low
3  RMVPALPPKRMLGAVREFIEARRR             low
4  RMVPALPPKRMLGADREFFEARRR          medium
5  RMVPALPPKRMLGADREFCEARRR          medium
6  RMVPALPVKRMLGADREFIEARRR          medium
7  RMVPALPPKRMLGAEREFIEARRR          medium
8  RMVPALPPKRQLGADREFIEARRR          medium

In: Could you place `RMVPALPPKRMLGADRYFIEARRR` in its proper category? Many thanks.
Out: medium

In: Now try `RMVPALPPKRMLGADREFDEARRR` .
Out: high
